test system: LNCaP; assay: SRB colorimetric cell growth inhibition assay, LNCaP; assay type: cell-based; settings: Homo sapiens, LNCaP, LN-caP; cell killing (cytotoxic effect); read-out: LC50 LN-caP
Mark Yes only when CC50 stays strictly below 0.8 µM. Values equal to the cut-off are No.

Q: Find out if reported CC50 for COc1cc(-c2c3c4cc(OC)c(OC(=O)[C@@H](N)C(C)C)cc4oc(=O)c3n3ccc4cc(OC(=O)[C@@H](N)C(C)C)c(OC)cc4c23)ccc1OC(=O)[C@@H](N)C(C)C [Compound 195] is less than 0.8 µM
Ans: Yes

Q: Let us now turn to COc1cc(-c2c3c4cc(OC)c(O)cc4oc(=O)c3n3ccc4c(N)cccc4c23)ccc1O [Compound 182]
Ans: No

Q: Let us now turn to COc1cc(-c2c3c4cc(OC)c(OC(=O)[C@@H]5CCCN5)cc4oc(=O)c3n3ccc4cc(OC(=O)[C@@H]5CCCN5)c(OC)cc4c23)ccc1OC(=O)[C@@H]1CCCN1 [Compound 180]
Ans: Yes

Q: Please answer likewise for COc1cc2c(cc1O)CCn1c-2c(Br)c2c3cc(OC)c(O)cc3oc(=O)c21 [Compound 188]
Ans: No

Q: Same question, COc1cc2ccn3c(c(-c4ccc(OC(=O)[C@@H](N)C(C)C)c(OC)c4)c4c5cc(OC)c(OC(=O)[C@@H](N)C(C)C)cc5oc(=O)c43)c2cc1OC [Compound 19] this time
Ans: No

Q: Follow-up entry: COc1cc2c(cc1OC)-c1c(-c3ccc(OC(=O)[C@H](C)NC(=O)OC(C)(C)C)c(OC)c3)c3c4cc(OC)c(OC(=O)[C@H](C)NC(=O)OC(C)(C)C)cc4oc(=O)c3n1CC2 [Compound 21]
Ans: Yes
